Taken from ChEMBL document CHEMBL1142370.

- procedureDetails: in vivo
- reportedConditions: rat, po, 30 mg/kg
Exercise: state measured bioavailability for each of the molecules provided.
Answers are plain numbers, in %.

Tell us which bioavailability value is on record for COc1cnn(C)c(=O)c1-c1ccc(C[C@H](NC(=O)c2cc(F)ccc2Cl)C(=O)OCCO)cc1
5

Next:
Annotate the molecule COc1cnn(C)c(=O)c1-c1ccc(C[C@H](NC(=O)c2cc(F)ccc2Cl)C(=O)O)cc1 with its measured bioavailability.
0

###

- procedureDetails: in vitro
- reportedConditions: human, Caco-2
measurementKind: Papp A→B (×10⁻⁶ cm/s)
Numbers only, in ×10⁻⁶ cm/s.

Supply recorded Papp A→B for COc1cnn(C)c(=O)c1-c1ccc(C[C@H](NC(=O)c2c(Cl)cccc2Cl)C(=O)O)cc1 here.
0.13

###

- procedureDetails: in vivo
- reportedConditions: rat, po, 30 mg/kg
Would you mind telling me the reported Cmax of each entry?
Numbers only, in µM.

Supply Cmax value. Item: COc1cnn(C)c(=O)c1-c1ccc(C[C@H](NC(=O)c2c(Cl)cccc2Cl)C(=O)O)cc1
0.1

Continue with the molecule presented below.
Return Cmax for the following molecule: COc1cnn(C)c(=O)c1-c1ccc(C[C@H](NC(=O)c2cc(F)ccc2Cl)C(=O)OCCO)cc1
19
